From: patent US12338206B2

- system: TRβ LBD (Homo sapiens)
- Construct: (or 5 μl TRβ LBD, 4×, 2 nM)
- Sequence (P10828 217-461 limits assumed): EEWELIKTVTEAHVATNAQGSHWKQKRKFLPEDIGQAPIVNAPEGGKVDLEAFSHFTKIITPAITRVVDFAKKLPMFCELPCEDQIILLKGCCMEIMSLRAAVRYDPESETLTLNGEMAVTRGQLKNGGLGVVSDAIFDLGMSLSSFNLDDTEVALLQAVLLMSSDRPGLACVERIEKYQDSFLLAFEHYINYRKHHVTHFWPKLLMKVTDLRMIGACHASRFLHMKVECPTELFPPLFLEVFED
- assaySummary: In vitro thyroid hormone receptor binding assay (TR-FRET coactivator assay), TRβ LBD
- conditionDescription: TR-FRET, TRβ LBD, Biotin-SRC2-2, 1 hour at room temperature
pEC50: −log10 of the molar value.
observationType: pEC50

>  <smilesRecord>
N#Cc1nn(-c2cc(Cl)c(Oc3ccc4[nH]c(=O)[nH]c4c3)c(Cl)c2)c(=O)[nH]c1=O

>  <system>
TRβ LBD (Homo sapiens)

>  <measuredResult>
6.07

$$$$
>  <smilesRecord>
Cc1c[nH]c2ccc(Cc3c(Cl)cc(-n4nc(C#N)c(=O)[nH]c4=O)cc3Cl)cc12

>  <system>
TRβ LBD (Homo sapiens)

>  <measuredResult>
7.07

$$$$
>  <smilesRecord>
Cc1c[nH]c2ncc(Oc3c(Cl)cc(-n4nc(C#N)c(=O)[nH]c4=O)cc3Cl)cc12

>  <system>
TRβ LBD (Homo sapiens)

>  <measuredResult>
5.54

$$$$
>  <smilesRecord>
Cc1cc(-n2nc(C#N)c(=O)[nH]c2=O)cc(C)c1Oc1cnc(O)c(C(C)C)c1

>  <system>
TRβ LBD (Homo sapiens)

>  <measuredResult>
5.70

$$$$
